Recorded zone of inhibition at 1000 µg/mL values for a group of molecules are listed next.
Tested on: Pseudomonas putida
Test: Antibacterial activity against Pseudomonas putida assessed as growth inhibition at 1 mg/ml by cup-plate method
Assay type: functional
Conditions: read-out: IZ
Express it in mm; write the number only.

Reference set (2 entries):
COc1ccc2[nH]c3c(c2c1)c1ccccc1c(=O)n3-c1n[nH]c(=S)o1 : 7
O=c1c2ccccc2c2c3cc(Cl)ccc3[nH]c2n1-c1n[nH]c(=S)o1 : 20

Consider the molecule `COc1ccc2[nH]c3c(c2c1)c1ccccc1c(=O)n3C(=O)n1nc(-c2ccccc2)cc1-c1ccccc1` and give its recorded zone of inhibition at 1000 µg/mL.
17

Consider the molecule `Cc1cc(C)n(C(=O)n2c(=O)c3ccccc3c3c4cc(Cl)ccc4[nH]c32)n1` and give its recorded zone of inhibition at 1000 µg/mL.
19

Consider the molecule `COc1ccc2[nH]c3c(c2c1)c1ccccc1c(=O)n3C(=O)n1nc(C)cc1C` and give its recorded zone of inhibition at 1000 µg/mL.
10

* * *

Test system: Bacillus subtilis
Assay: Antibacterial activity against Bacillus subtilis assessed as growth inhibition at 1 mg/ml by cup-plate method
Format: functional
Conditions: read-out: IZ
Returns Satisfied if the recorded zone of inhibition at 1000 µg/mL is greater than or equal to 10 mm, and Not satisfied otherwise.

Cc1ccc2[nH]c3c(c2c1)c1ccccc1c(=O)n3C(=O)n1nc(-c2ccccc2)cc1-c1ccccc1 : Not satisfied
Cc1ccc2[nH]c3c(c2c1)c1ccccc1c(=O)n3-c1n[nH]c(=S)o1 : Satisfied
O=C(n1nc(-c2ccccc2)cc1-c1ccccc1)n1c(=O)c2ccccc2c2c3cc(Cl)ccc3[nH]c21 : Satisfied
O=c1c2ccccc2c2c3cc(Cl)ccc3[nH]c2n1-c1n[nH]c(=S)o1 : Satisfied

Check this molecule for zone of inhibition at 1000 µg/mL at or above 10 mm: `COc1ccc2[nH]c3c(c2c1)c1ccccc1c(=O)n3C(=O)n1nc(C)cc1C`
Not satisfied

Check this molecule for zone of inhibition at 1000 µg/mL at or above 10 mm: `COc1ccc2[nH]c3c(c2c1)c1ccccc1c(=O)n3C(=O)n1nc(-c2ccccc2)cc1-c1ccccc1`
Satisfied

Check this molecule for zone of inhibition at 1000 µg/mL at or above 10 mm: `Cc1ccc2[nH]c3c(c2c1)c1ccccc1c(=O)n3C(=O)n1nc(C)cc1C`
Satisfied

* * *

Tested on: Aspergillus niger
Experiment: Antifungal activity against Aspergillus niger assessed as growth inhibition at 1 mg/ml by cup-plate method
Assay type: functional
Conditions: read-out: IZ
Recorded zone of inhibition at 1000 µg/mL values for a group of molecules are listed next.
Express it in mm; write the number only.

Reference set (4 entries):
Cc1ccc2[nH]c3c(c2c1)c1ccccc1c(=O)n3C(=O)n1nc(C)cc1C : 8
OC(Cn1cncn1)(Cn1cncn1)c1ccc(F)cc1F : 18
COc1ccc2[nH]c3c(c2c1)c1ccccc1c(=O)n3C(=O)n1nc(-c2ccccc2)cc1-c1ccccc1 : 9
O=C(n1nc(-c2ccccc2)cc1-c1ccccc1)n1c(=O)c2ccccc2c2c3cc(Cl)ccc3[nH]c21 : 4

Provide zone of inhibition at 1000 µg/mL, recorded with Aspergillus niger, of `Cc1ccc2[nH]c3c(c2c1)c1ccccc1c(=O)n3C(=O)n1nc(-c2ccccc2)cc1-c1ccccc1`
15
